Assay Procedure: The drug is tested on WLS-082 corresponding to human gut metagenome with ENA study accession number: PRJEB37062 and ENA sample accession number: ERS12561751 for biotransformation under anaerobic condition. The drug concentrations were measured over 9 timepoints collected between 0 and 24 hours of incubation by liquid-chromatography-coupled mass spectrometry (LC–MS); also: call rule not given here
Run Parameters: 2 µM
Observed Property: Bacterial Biotransformation

O=c1[nH]c2ccccc2n1CCCN1CCC(n2c(=O)[nH]c3cc(Cl)ccc32)CC1 [DOMPERIDONE] :: Compound NOT metabolized
CC(CN1c2ccccc2Sc2ccccc21)N(C)C (centres undefined) [PROMETHAZINE] :: Compound NOT metabolized
CCN(CC)C(C)CN1c2ccccc2Sc2ccccc21 (centres undefined) [ETHOPROPAZINE] :: Compound metabolized
Cc1cn([C@H]2C[C@H](N=[N+]=[N-])[C@@H](CO)O2)c(=O)[nH]c1=O [ZIDOVUDINE] :: Compound NOT metabolized
NC12CC3CC(CC(C3)C1)C2 [AMANTADINE] :: Compound NOT metabolized

Tell me the measured Bacterial Biotransformation of O=C(Nc1ccccc1)OCC(CN1CCCCC1)OC(=O)Nc1ccccc1 (centres undefined) [DIPERODON] , please.
Compound metabolized

Tell me the measured Bacterial Biotransformation of Clc1ccc(Cn2c(CN3CCCC3)nc3ccccc32)cc1 [CLEMIZOLE] , please.
Compound metabolized

Tell me the measured Bacterial Biotransformation of NC(=O)N1c2ccccc2CC(=O)c2ccccc21 [OXCARBAZEPINE] , please.
Compound NOT metabolized

Tell me the measured Bacterial Biotransformation of C[C@@H](CO)NC(=O)[C@@H]1C=C2c3cccc4[nH]cc(c34)C[C@H]2N(C)C1.O=C(O)/C=C\C(=O)O [ERGONOVINE MALEATE] , please.
Compound metabolized

Tell me the measured Bacterial Biotransformation of COc1cc2nc(N(C)CCCNC(=O)C3CCCO3)nc(N)c2cc1OC (centres undefined) [ALFUZOSIN] , please.
Compound metabolized

Tell me the measured Bacterial Biotransformation of CCCCc1nc(Cl)c(CO)n1Cc1ccc(-c2ccccc2-c2nn[nH]n2)cc1 [LOSARTAN] , please.
Compound metabolized

Tell me the measured Bacterial Biotransformation of Nc1ccc(/N=N/c2ccccc2)c(N)n1 [PHENAZOPYRIDINE] , please.
Compound metabolized

Tell me the measured Bacterial Biotransformation of COc1ccccc1OCC(O)COC(N)=O (centres undefined) [METHOCARBAMOL] , please.
Compound NOT metabolized

Tell me the measured Bacterial Biotransformation of O=C1[C@H](CC[C@H](O)c2ccc(F)cc2)[C@@H](c2ccc(O)cc2)N1c1ccc(F)cc1 [EZETIMIBE] , please.
Compound metabolized

Tell me the measured Bacterial Biotransformation of Cc1nc2n(c(=O)c1CCN1CCC(c3noc4cc(F)ccc34)CC1)CCCC2 [RISPERIDONE] , please.
Compound metabolized

Tell me the measured Bacterial Biotransformation of N#Cc1ccc(C(c2ccc(C#N)cc2)n2cncn2)cc1 [LETROZOLE] , please.
Compound NOT metabolized

###

Run Parameters: human gut metagenome, 24 h, 2 µM
Observed Property: Bacterial Biotransformation

Past entries and their recorded results:
CCCc1nc2c(C)cc(-c3nc4ccccc4n3C)cc2n1Cc1ccc(-c2ccccc2C(=O)O)cc1 :: Compound metabolized
Nc1ccc(/N=N/c2ccccc2)c(N)n1 [PHENAZOPYRIDINE] :: Compound metabolized
CS(=O)(=O)O.O.O.O.O=C1Cc2cc(CCN3CCN(c4nsc5ccccc45)CC3)c(Cl)cc2N1 [ZIPRASIDONE MESYLATE] :: Compound metabolized
O=C(O)CCc1nc(-c2ccccc2)c(-c2ccccc2)o1 [OXAPROZIN] :: Compound metabolized
CN1C[C@H](C(=O)N[C@]2(C)O[C@@]3(O)[C@@H]4CCCN4C(=O)[C@H](Cc4ccccc4)N3C2=O)C=C2c3cccc4[nH]cc(c34)C[C@H]21.CN1C[C@H](C(=O)N[C@]2(C)O[C@@]3(O)[C@@H]4CCCN4C(=O)[C@H](Cc4ccccc4)N3C2=O)C=C2c3cccc4[nH]cc(c34)C[C@H]21.O=C(O)C(O)C(O)C(=O)O [ERGOTAMINE TARTRATE] :: Compound metabolized
CN1C(=O)CC(C)(c2ccccc2)C1=O (stereo not given) [METHSUXIMIDE] :: Compound NOT metabolized
CCN(CC)CCNC(=O)c1cc(Cl)c(N)cc1OC [METOCLOPRAMIDE] :: Compound NOT metabolized
CNC(=C[N+](=O)[O-])NCCSCc1ccc(CN(C)C)o1 [RANITIDINE] :: Compound metabolized
Br.CN(C)CCCC1(c2ccc(F)cc2)OCc2cc(C#N)ccc21 (stereo not given) [CITALOPRAM HYDROBROMIDE] :: Compound NOT metabolized
COc1cc2c(c(OC)c1OC)-c1ccc(OC)c(=O)cc1[C@@H](NC(C)=O)CC2 [COLCHICINE] :: Compound metabolized

Tell me the measured Bacterial Biotransformation of CC(C)NCC(O)COc1ccc(COCCOC(C)C)cc1.CC(C)NCC(O)COc1ccc(COCCOC(C)C)cc1.O=C(O)/C=C/C(=O)O (stereo not given) [BISOPROLOL FUMARATE] , please.
Compound NOT metabolized

Tell me the measured Bacterial Biotransformation of CC(Oc1c(Cl)cccc1Cl)C1=NCCN1 (stereo not given) [LOFEXIDINE] , please.
Compound NOT metabolized

###

Run Parameters: human gut metagenome, 24 h, 2 µM
Observed Property: Bacterial Biotransformation

CCN(CC)CC#CCOC(=O)C(O)(c1ccccc1)C1CCCCC1.Cl (stereo not drawn) [OXYBUTYNIN CHLORIDE] :: Compound metabolized
CCCCCOC(=O)Nc1nc(=O)n([C@@H]2O[C@H](C)[C@@H](O)[C@H]2O)cc1F :: Compound metabolized
C[C@@H](CO)NC(=O)[C@@H]1C=C2c3cccc4[nH]cc(c34)C[C@H]2N(C)C1.O=C(O)/C=C\C(=O)O [ERGONOVINE MALEATE] :: Compound metabolized
CCCC1O[C@@H]2C[C@H]3[C@@H]4CCC5=CC(=O)C=C[C@]5(C)[C@H]4[C@@H](O)C[C@]3(C)[C@]2(C(=O)CO)O1 (stereo partly drawn) [BUDESONIDE] :: Compound metabolized
Cc1ccc(S(=O)(=O)NC(=O)NN2CC3CCCC3C2)cc1 (stereo not drawn) [GLICLAZIDE] :: Compound metabolized

Switching to the query record.
Tell me the measured Bacterial Biotransformation of COc1ccccc1OCC(O)CN1CCN(CC(=O)Nc2c(C)cccc2C)CC1 (stereo not drawn) , please.
Compound NOT metabolized

###

Assay Procedure: The drug is tested on Z-021 corresponding to metagenome with ENA study accession number: PRJEB37062 and ENA sample accession number: ERS12561820 for biotransformation under anaerobic condition. The drug concentrations were measured over 9 timepoints collected between 0 and 24 hours of incubation by liquid-chromatography-coupled mass spectrometry (LC–MS)
Run Parameters: 2 µM
Observed Property: Bacterial Biotransformation

CCCc1nc2c(C)cc(-c3nc4ccccc4n3C)cc2n1Cc1ccc(-c2ccccc2C(=O)O)cc1 :: Compound metabolized
O=C(O)COCCN1CCN(C(c2ccccc2)c2ccc(Cl)cc2)CC1 (stereo not drawn) :: Compound metabolized
COc1ccc2[nH]c([S+]([O-])Cc3ncc(C)c(OC)c3C)nc2c1 (stereo not drawn) :: Compound NOT metabolized
CCCCCCOC(=O)/N=C(/N)c1ccc(NCc2nc3cc(C(=O)N(CCC(=O)OCC)c4ccccn4)ccc3n2C)cc1.CS(=O)(=O)O [DABIGATRAN ETEXILATE MESYLATE] :: Compound NOT metabolized
CC(C)(C(=O)O)c1ccc(C(O)CCCN2CCC(C(O)(c3ccccc3)c3ccccc3)CC2)cc1 (stereo not drawn) [FEXOFENADINE] :: Compound NOT metabolized

Tell me the measured Bacterial Biotransformation of CNCCC(Oc1ccc(C(F)(F)F)cc1)c1ccccc1 (stereo not drawn) , please.
Compound NOT metabolized

Tell me the measured Bacterial Biotransformation of CCCCC(=O)N(Cc1ccc(-c2ccccc2-c2nnn[nH]2)cc1)[C@H](C(=O)O)C(C)C , please.
Compound metabolized

Tell me the measured Bacterial Biotransformation of CC(C)NCC(O)c1ccc(NS(C)(=O)=O)cc1 (stereo not drawn) , please.
Compound NOT metabolized

Tell me the measured Bacterial Biotransformation of COc1ccc2[nH]c([S+]([O-])Cc3ncc(C)c(OC)c3C)nc2n1 (stereo not drawn) , please.
Compound NOT metabolized

Tell me the measured Bacterial Biotransformation of CN1C(=O)CCS(=O)(=O)C1c1ccc(Cl)cc1 (stereo not drawn) , please.
Compound NOT metabolized

Tell me the measured Bacterial Biotransformation of CCCCc1nc(Cl)c(CO)n1Cc1ccc(-c2ccccc2-c2nn[nH]n2)cc1 , please.
Compound NOT metabolized

Tell me the measured Bacterial Biotransformation of CC(Oc1c(Cl)cccc1Cl)C1=NCCN1 (stereo not drawn) , please.
Compound NOT metabolized

Tell me the measured Bacterial Biotransformation of Fc1ccc([C@@H]2CCNC[C@H]2COc2ccc3c(c2)OCO3)cc1 , please.
Compound metabolized

Tell me the measured Bacterial Biotransformation of COc1cc2c(c(OC)c1OC)-c1ccc(OC)c(=O)cc1[C@@H](NC(C)=O)CC2 , please.
Compound NOT metabolized
